Listing: Kd of selected binders
- assay.system: T1, TRBC1 (T cell receptor beta-chain constant domain 1), interaction partner protein injected in SPR (human, UniProt P01850 1-129, limits assumed)
- T1 construct: also called TCR beta constant region 1
- T1 sequence (P01850 1-129 limits assumed): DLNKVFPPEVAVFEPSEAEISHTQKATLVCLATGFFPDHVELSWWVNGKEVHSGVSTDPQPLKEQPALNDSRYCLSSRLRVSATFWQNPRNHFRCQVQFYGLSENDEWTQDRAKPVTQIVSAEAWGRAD
- method.notes: SPR (Biacore T200), antibody captured on anti-human IgG chip, TRBC1 injected, 25 C, 1:1 Langmuir fit

// query Need Kd of Mut10 (antibody, V domains shown, Variant of hJOVI-1; captured by anti-human IgG in SPR; also called VH Y102M) VH: QVQLVQSGAEVKKPGASVKVSCKASGYTFTGYVMHWVRQAPGQGLEWMGFINPYNDDIQSNERFRGRVTMTRDTSISTAYMELSRLRSDDTAVYYCARGAGMNFDGAYRFFDFWGQGTMVTVSS VL: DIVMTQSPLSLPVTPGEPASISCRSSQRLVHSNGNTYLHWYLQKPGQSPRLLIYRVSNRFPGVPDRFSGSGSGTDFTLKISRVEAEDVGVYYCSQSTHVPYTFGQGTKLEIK , thanks.
// result 90 nM

// query Need Kd of Mut13 (antibody, V domains shown, Variant of hJOVI-1; captured by anti-human IgG in SPR; also called VH T28K, Y32F, A100N; VL N35K) VH: QVQLVQSGAEVKKPGASVKVSCKASGYKFTGFVMHWVRQAPGQGLEWMGFINPYNDDIQSNERFRGRVTMTRDTSISTAYMELSRLRSDDTAVYYCARGNGYNFDGAYRFFDFWGQGTMVTVSS VL: DIVMTQSPLSLPVTPGEPASISCRSSQRLVHSNGKTYLHWYLQKPGQSPRLLIYRVSNRFPGVPDRFSGSGSGTDFTLKISRVEAEDVGVYYCSQSTHVPYTFGQGTKLEIK , thanks.
// result 1000 nM

// query Need Kd of Mut5 (antibody, V domains shown, Variant of hJOVI-1; captured by anti-human IgG in SPR; also called VH Y32F) VH: QVQLVQSGAEVKKPGASVKVSCKASGYTFTGFVMHWVRQAPGQGLEWMGFINPYNDDIQSNERFRGRVTMTRDTSISTAYMELSRLRSDDTAVYYCARGAGYNFDGAYRFFDFWGQGTMVTVSS VL: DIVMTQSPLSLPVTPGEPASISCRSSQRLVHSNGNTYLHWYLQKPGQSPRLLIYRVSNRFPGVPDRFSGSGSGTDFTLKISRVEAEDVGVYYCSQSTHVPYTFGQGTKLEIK , thanks.
// result 426 nM
